Source of measurements: ChEMBL document CHEMBL3988442

System: Wolbachia pipientis
Experiment: Anti-Wolbachia Cell-Based Screen
Assay type: functional
Design: scale not given: in the data most compounds retested in dose-response had high values
Conditions: 5 µM
The whole screen tested about 48,000 compounds, of which about 13,000 (27%) showed an effect of 50% or more. The list shows a part of the results.
TEST_READOUT: Percent Effect (%)
State just the number; it will be interpreted in %.

Please review the entries below; each comes with its answer.
O=C(NCc1cccnc1)NCC(O)c1cccc(C(F)(F)F)c1 (configuration not stated); -14.42
CC(C)c1cc(C(=O)N2CCNCC2C(=O)NCc2ccncc2)on1 (configuration not stated); -12.97
CCS(=O)(=O)N1CCOC2(CCCN(c3ccccn3)C2)C1.O=C(O)C(F)(F)F (configuration not stated); -10.79
N#Cc1cccc(N2CCCC3(C2)CN(c2ncccn2)CCO3)n1.O=C(O)C(F)(F)F (configuration not stated); -0.7909
COCCNS(=O)(=O)c1ccc2c(c1)CCN(C(=O)c1cncn1C)C2; -12.86
COc1cc(C)c(CNC(C)c2csc(C3CC3)n2)cc1OC (configuration not stated); 30.24
COc1cccc2c1OCC(CNC(=O)CNC(N)=O)C2 (configuration not stated); -0.3476
CC(C)N(C)S(=O)(=O)c1ccc2c(c1)CCN(C(=O)c1ccccn1)C2; 85.52
COc1cccc2c1OCC(CNC(=O)CSc1ccccn1)C2 (configuration not stated); -6.827
COc1cccc2c1OCC(C(=O)NCCc1nnc(C)s1)C2 (configuration not stated); 6.125

Name the recorded Percent Effect for CCOc1cccc(CNC(=O)NCC(O)c2cccc(F)c2)c1 (configuration not stated) .
5.413

Name the recorded Percent Effect for CCc1noc(CS(=O)(=O)C/C=C/c2ccccc2)n1 .
-3.698

Name the recorded Percent Effect for O=C(O)C(F)(F)F.O=C(O)C(F)(F)F.c1cnc(N2CCOC3(CCCN(c4cnccn4)C3)C2)nc1 (configuration not stated) .
-4.65

---

System: Wolbachia pipientis
Assay: Anti-Wolbachia Cell-Based Screen
Format: functional
Set-up: scale not given: in the data most compounds retested in dose-response had high values
Details: 5 µM
Out of some 48,000 compounds screened, about 13,000 (27%) showed an effect of 50% or more. The list shows a part of the results.
# Lookup of reported Percent Effect keyed by entry
State just the number; it will be interpreted in %.

Cn1cnc2c1CCN(Cc1cccc(C(N)=O)c1)C2; -6.228
COc1ccccc1CN1CCc2c(nc(-c3ccccn3)[nH]c2=O)C1; 118.7

Name the recorded Percent Effect for CNC(=O)[C@@H]1C[C@@H](NC(=O)c2ccc(OC)o2)CN1Cc1sccc1C .
3.708

Name the recorded Percent Effect for COc1ccccc1CN1C[C@@H](F)[C@@H](OCc2nc3ncccc3[nH]2)C1 .
-5.339

Name the recorded Percent Effect for Cc1nn(C)cc1CN1CCc2c(nc(-c3ccccn3)[nH]c2=O)C1 .
96.61

Name the recorded Percent Effect for CCc1nnc2n1CCN(Cc1noc(-c3cccc(C)c3)n1)C2 .
-12.68

---

System: Wolbachia pipientis
Experiment: Anti-Wolbachia Cell-Based Screen
Assay type: functional
Set-up: scale not given: in the data most compounds retested in dose-response had high values
Conditions: 5 µM
Screen size: about 48,000 compounds; about 13,000 (27%) showed an effect of 50% or more. Some of the results follow.
TEST_READOUT: Percent Effect (%)
State just the number; it will be interpreted in %.

Name the recorded Percent Effect for CCc1cnc(N2CCN(CC(=O)Nc3c(C)n[nH]c3C)CC2)s1 .
-15.52

Name the recorded Percent Effect for CCC(=O)NC1CCCN(Cc2ccc(-n3ccnc3)cc2)C1 (stereo not drawn) .
12

Name the recorded Percent Effect for C[C@@H]1CN(CCC(=O)N(C)Cc2ccccc2)CC[C@@]1(O)C1CCC1 .
22.93

Name the recorded Percent Effect for CCN(Cc1cccc(-c2ccncc2)c1)S(C)(=O)=O .
22.59

Name the recorded Percent Effect for Cc1ccc(-c2csc(N)c2C#N)cc1 .
-4.785

Name the recorded Percent Effect for Cc1nn(C)c(C)c1NC(=O)CN1CCN(c2nccs2)C(C)C1 (stereo not drawn) .
107.6

Name the recorded Percent Effect for CCc1cc(N2CCC(NC(=O)CCC3CCCO3)CC2)ncn1 (stereo not drawn) .
-4.201

Name the recorded Percent Effect for CCNc1ncc(CN2C[C@@H](C(=O)O)[C@H](C3CC3)C2)cn1 .
-13.99

Name the recorded Percent Effect for CCCc1cc(N2CCC(NCCc3ccc(O)cc3)CC2)nc(C)n1 .
19.96

Name the recorded Percent Effect for Cc1n[nH]c(C)c1NC(=O)CN1CCN(c2nccs2)C(C)C1 (stereo not drawn) .
95.63

Name the recorded Percent Effect for CCc1cc(N2CCC(NCc3ccc(C)o3)CC2)ncn1 .
91.75

Name the recorded Percent Effect for CN(Cc1ccccc1)C(=O)CCN1C[C@H](C2CC2)[C@@H](N(C)C)C1 .
117.2

Name the recorded Percent Effect for C[C@@H]1CN(CCC(=O)N(C)Cc2ccccc2)C[C@@]1(O)C1CCC1 .
-9.793

Name the recorded Percent Effect for CCc1cc(N2CCC(NCCc3nc(C)c(C)s3)CC2)nc(C)n1 .
99.23

Name the recorded Percent Effect for O=C(O)[C@@H]1CN(Cc2cnc(C3CCCCC3)nc2)C[C@H]1C1CC1 .
0.2506

Name the recorded Percent Effect for CC1CN(CC(=O)Nc2nncs2)CCN1Cc1nccn1C (stereo not drawn) .
-11.48

Name the recorded Percent Effect for CC(C)(C)c1csc(CNC(=O)C2NCCc3[nH]cnc32)n1 (stereo not drawn) .
-12.08

Name the recorded Percent Effect for Cc1cc(NC(=O)CN2CCN(c3nccs3)C(C)C2)n(C)n1 (stereo not drawn) .
-9.576

Name the recorded Percent Effect for CCN(Cc1ccncc1)C(=O)CCn1c(C)cc2ccccc21 .
-6.043

Name the recorded Percent Effect for Cc1ccc(CN2CC[C@@H]3OCCN(S(C)(=O)=O)[C@H]3CC2)s1.O=C(O)C(F)(F)F .
114.1

Name the recorded Percent Effect for CN(Cc1ccccc1)C(=O)CCN1CCC2(CC1)[C@H](O)C[C@@H]2O .
-5.462

Name the recorded Percent Effect for Cc1nc(C)c(C)c(N2CCC(NCCOc3ccccc3)CC2)n1 .
8.772

Name the recorded Percent Effect for CCN(Cc1ccccc1)C(=O)CCN1CC(O)C1 .
89.96
